assay: human hepatoma cell viability loss – ATP luminescence, cytotoxicity control for P. falciparum antimalarial project, primary screen (AID 2303); details: HepG2 viability, 24-48 h, at 10 µM, stronger effect = higher value;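 further: 0% = DMSO wells and 100% = digitonin-killed cells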
inhibition values, listed per item
Give your result in % as a bare value.

Completed entries (count: 4):
CCN(CC)CCNc1ccnc2[nH]c3ccc(Cl)cc3c12; 3
COc1ccc(-c2nc(NC(=O)COc3ccc(C(C)=O)cc3)sc2C)cc1; -2
CC(C)n1ncc2c(C(=O)N3CCCc4ccccc43)cc(-c3ccccc3)nc21; 5
COc1ccc2nccc([C@@H](O)CN3CCC(NC(=O)Cc4cc5ccccc5s4)CC3)c2c1; 16

Attention now turns to another entry.
Query :: Given the entry CC(C)C1=CC(=NOS(=O)(=O)c2ccccc2)C=C(C(C)C)C1=O , report its measured inhibition.
Result :: 23

###

assay: inhibition of 3D7 malaria parasite growth – strain 3D7 (AID 2306);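 further: 0% = DMSO wells and 100% = chloroquine plus artemisinin control wells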; details: P. falciparum 3D7 erythrocytic growth, LDH absorbance, 72 h; at 2 µM; stronger effect = higher value
RESULT_TYPE: growth inhibition (%)
Give your result in % as a bare value.

Completed entries (count: 5):
COc1ccc2nccc([C@@H](O)CN3CCC(NCCOc4cccc(C(F)(F)F)c4Cl)CC3)c2c1; 100
CC(C)n1nc(C(=O)N2CCN(c3ccccc3)CC2)c2ccccc2c1=O; 96
O=C(Nc1ccccc1)N(Cc1ccc(-c2cccc(CNC3CCCC3)c2)cc1)C1CCN(Cc2ccccc2)CC1; 101
NC(N)=NC(=O)Nc1cc(Cl)c(F)c(Cl)c1; 100
Cc1cc(N(C)C)nc(Nc2ccc(NC(=O)C(C)Oc3ccccc3)cc2)n1 (stereo not given); 98

Query :: Given the entry COc1ccccc1-c1ccc2nnc(SCC(=O)Nc3ccc4c(c3)OCCO4)n2n1 , report its measured growth inhibition.
Result :: 99

Query :: Given the entry Cc1cccc2[nH]c(-c3ccc(-c4ccc(CN5CCCC(N)C5)cc4)s3)nc12 (stereo not given) , report its measured growth inhibition.
Result :: 101

###

target: Protein kinase 7 (PK7), Plasmodium falciparum 3D7 (PF3D7_0213400) (UniProt Q7YTF7); assay: inhibition of Plasmodium PK7 catalytic activity – biochemical, TCAMS antimalarial set, Kinase-Glo luminescence (AID 1159587); conditions: recombinant PfPK7, Kinase-Glo ATP depletion luminescence
Calls of active or inactive are those of the source. How the calls were made is not given here.
RESULT_TYPE: outcome

Completed entries (count: 8):
O=C(Nc1cccc(C(F)(F)F)c1)c1cccc(S(=O)(=O)NC2CCN(CC3CCCCC3)C2)c1 (stereo not given); inactive
COc1ccc(-c2cccc(NC(=O)c3ccc(F)cc3)c2)cc1CN1CCCN(C)CC1; inactive
CCCC(C)Nc1nc(C)cc(N[C@@H](CC(C)C)C(=O)NCc2cccc(F)c2)n1 (stereo not given in full); inactive
CCC(C)OC(=O)C1=C(C)NC2=C(C(=O)CC(c3ccc(OC)c(OC)c3)C2)C1c1ccc(C)o1 (stereo not given); inactive
COc1cccc(Nc2nc(C)cc(NCc3ccc(-c4c(C)noc4C)cc3)n2)c1; inactive
CCN(CCCN1CCCCC1)c1cc(C)nc(Nc2ccc(C)cc2)n1; inactive
COc1ccccc1N1CCN(C(C(=O)NCc2ccc3c(c2)OCO3)c2ccc(C)cc2)CC1 (stereo not given); inactive
O=C(Nc1nc2cc(S(=O)(=O)NCCCN3CCOCC3)ccc2n1CCCn1ccnc1)c1ccc(Cl)cc1; inactive

Query :: Given the entry O=C(NC1CCC(CCN2Cc3cccc(F)c3C2)CC1)c1cccc(-c2cccnc2)c1 (stereo not given) , report its measured outcome.
Result :: inactive

Query :: Given the entry CC12CN3CC(C)(CN(C1)C3c1cc(Br)ccc1O)C2O (stereo not given) , report its measured outcome.
Result :: inactive

Query :: Given the entry CC(=O)c1ccc(S(=O)(=O)N2CCC(C(=O)Nc3ccccc3N3CCCC3)CC2)cc1 , report its measured outcome.
Result :: inactive

Query :: Given the entry O=C(NC1CCCCN(Cc2ccccc2O)C1)c1cccc(C(F)(F)F)c1 (stereo not given) , report its measured outcome.
Result :: inactive

Query :: Given the entry Cc1cc(N(C)CCCN(C)C)nc(Nc2ccc(Cl)cc2)n1 , report its measured outcome.
Result :: inactive

Query :: Given the entry COc1nc2c(N3CCN(CCNCc4ccc5c(n4)NC(=O)CO5)CC3)ccnc2cc1F , report its measured outcome.
Result :: inactive

Query :: Given the entry COc1ccc(C(=O)N2CCC(C(=O)NC(C)c3ccc(-n4ccnc4)cc3)CC2)c2ccccc12 (stereo not given) , report its measured outcome.
Result :: inactive

Query :: Given the entry c1cncc(Oc2ccc(Nc3ccnc4cc(-c5cccc(CN6CCOCC6)c5)ccc34)cc2)c1 , report its measured outcome.
Result :: inactive

Query :: Given the entry O=c1c2sc(-c3ccc(Cl)cc3)cc2ncn1Cc1ccc(OCCN2CCCC2)c2ccccc12 , report its measured outcome.
Result :: inactive

Query :: Given the entry COc1ccc(Cl)cc1-c1nc(C(=O)NCCN2CCCCC2)c(C(C)C)s1 , report its measured outcome.
Result :: inactive

Query :: Given the entry Cc1cc(Nc2ccc(Cl)cc2)n2nc(C(F)(F)F)nc2n1 , report its measured outcome.
Result :: inactive

Query :: Given the entry CN1CCN(CC2(Nc3nccc(NCCc4cn(C)c5ccccc45)n3)CCCCC2)CC1 , report its measured outcome.
Result :: inactive

Query :: Given the entry FC(F)(F)c1cc(CNCCCNc2nc3ccncc3[nH]2)ccc1Cl , report its measured outcome.
Result :: inactive

Query :: Given the entry c1ccc2c3c(ccc2c1)Sc1c(ccc2ccccc12)N3 , report its measured outcome.
Result :: inactive
